tested on: Acinetobacter baumannii; assay: Antibacterial activity against Acinetobacter baumannii assessed as inhibition of bacterial growth incubated for 24 hrs by broth microdilution method; type: functional; conditions: read-out: MIC100
measured-attribute: MIC (µg/mL)

(I) CC(C)CCCCC(=O)N[C@@H](CCN)C(=O)N[C@H](C(=O)N[C@@H](CCN)C(=O)N[C@H]1CCNC(=O)[C@H]([C@@H](C)O)NC(=O)[C@H](CCN)NC(=O)[C@H](CCN)NC(=O)[C@H](CC(C)C)NC(=O)[C@@H](Cc2ccccc2)NC(=O)[C@H](CCN)NC1=O)C(C)C
(II) CCCCCCCC(=O)N[C@@H](CCN)C(=O)N[C@H](C(=O)N[C@@H](CCN)C(=O)N[C@H]1CCNC(=O)[C@H](C(C)C)NC(=O)[C@H](CCN)NC(=O)[C@H](CCN)NC(=O)[C@H](CC(C)C)NC(=O)[C@@H](Cc2ccccc2)NC(=O)[C@H](CCN)NC1=O)[C@@H](C)O
(III) CCCCCCCC(=O)N[C@@H](CCN)C(=O)N[C@H](C(=O)N[C@@H](CCN)C(=O)N[C@H]1CCNC(=O)[C@H](CCN)NC(=O)[C@H](CCN)NC(=O)[C@H](CCN)NC(=O)[C@H](CC(C)C)NC(=O)[C@@H](Cc2ccccc2)NC(=O)[C@H](CCN)NC1=O)[C@@H](C)O
(IV) CCCCCCCC(=O)N[C@@H](CCN)C(=O)N[C@@H](CCSC)C(=O)N[C@@H](CCN)C(=O)N[C@H]1CCNC(=O)[C@H]([C@@H](C)O)NC(=O)[C@H](CCN)NC(=O)[C@H](CCN)NC(=O)[C@H](CC(C)C)NC(=O)[C@@H](Cc2ccccc2)NC(=O)[C@H](CCN)NC1=O
Incoming: Provide the items ranked by increasing MIC. Put the labels in the requested order and write them down.
Outgoing: III, II, IV, I
(III: 0.25 µg/mL, II: 1 µg/mL, IV: 2 µg/mL, I: 16 µg/mL)
